System: glucocorticoid receptors (endogenous) in SW1353/MMTV-5 cells (Homo sapiens, UniProt P04150)
Construct: contains endogenous glucocorticoid receptors; endogenous in cells
Sequence (P04150 1-777): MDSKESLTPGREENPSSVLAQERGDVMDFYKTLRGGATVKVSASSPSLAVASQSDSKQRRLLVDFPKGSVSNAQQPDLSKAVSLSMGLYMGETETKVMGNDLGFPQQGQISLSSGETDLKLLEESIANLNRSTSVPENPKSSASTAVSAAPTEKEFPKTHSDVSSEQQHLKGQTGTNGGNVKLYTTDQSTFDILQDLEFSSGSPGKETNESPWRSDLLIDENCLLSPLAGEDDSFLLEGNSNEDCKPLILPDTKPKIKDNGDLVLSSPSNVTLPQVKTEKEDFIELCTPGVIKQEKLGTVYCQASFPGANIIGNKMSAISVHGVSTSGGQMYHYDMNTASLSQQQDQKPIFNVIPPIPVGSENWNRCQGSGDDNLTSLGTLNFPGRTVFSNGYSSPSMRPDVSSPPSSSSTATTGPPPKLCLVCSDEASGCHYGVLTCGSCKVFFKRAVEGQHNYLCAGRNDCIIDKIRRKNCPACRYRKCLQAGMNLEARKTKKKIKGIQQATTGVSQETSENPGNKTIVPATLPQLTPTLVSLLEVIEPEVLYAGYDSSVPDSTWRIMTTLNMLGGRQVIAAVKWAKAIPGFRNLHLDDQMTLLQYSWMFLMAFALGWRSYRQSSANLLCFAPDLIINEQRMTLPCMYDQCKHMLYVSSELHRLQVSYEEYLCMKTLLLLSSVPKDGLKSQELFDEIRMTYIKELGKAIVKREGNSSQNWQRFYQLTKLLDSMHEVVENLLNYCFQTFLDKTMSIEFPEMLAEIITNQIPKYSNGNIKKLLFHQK
Protocol Details: GR functional assay using SW1353/MMTV-5 cells (MMTV-GRE luciferase reporter)
pKi: −log10 of the molar value.
Readout Name: pKi

Completed entries (count: 4):
CN(C)c1cccc(Cc2c(=O)[nH]c(=O)[nH]c2[C@H]2CC[C@H](c3ccccc3)CC2)n1: > 7.30
O=c1[nH]c(=O)c(Cc2ccccn2)c([C@H]2CC[C@H](c3ccccc3)CC2)[nH]1: < 7.00
O=c1[nH]c(=O)c(Cc2c(Cl)cccc2Cl)c([C@H]2CC[C@H](c3ccccc3)CC2)[nH]1: 7.00 to 7.30
O=c1[nH]c(C2=CCC(c3ccccc3)CC2)c(Cc2ccccc2Cl)c(=O)[nH]1 (centres unmarked): < 7.00

Query block: Which measured pKi value corresponds to O=c1[nH]c(=O)c(Cc2cc(Cl)ccc2Cl)c([C@H]2CC[C@H](c3ccccc3)CC2)[nH]1 ?
Result block: > 7.30
